The reported numbers originate from patent US20060040957A1.

Each entry below carries its recorded IC50.
molecular target: MMP-9FL (full length Gelatinase B) (Homo sapiens, UniProt P14780); assay: Thiopeptolide substrate hydrolysis assay, MMP-9FL; type: biochemical; conditions: HEPES pH 7.0, 22° C., read-out: IC50 (μM) Versus Certain MMPs: MMP-09 FL
Sequence (P14780 94-707, species assumed): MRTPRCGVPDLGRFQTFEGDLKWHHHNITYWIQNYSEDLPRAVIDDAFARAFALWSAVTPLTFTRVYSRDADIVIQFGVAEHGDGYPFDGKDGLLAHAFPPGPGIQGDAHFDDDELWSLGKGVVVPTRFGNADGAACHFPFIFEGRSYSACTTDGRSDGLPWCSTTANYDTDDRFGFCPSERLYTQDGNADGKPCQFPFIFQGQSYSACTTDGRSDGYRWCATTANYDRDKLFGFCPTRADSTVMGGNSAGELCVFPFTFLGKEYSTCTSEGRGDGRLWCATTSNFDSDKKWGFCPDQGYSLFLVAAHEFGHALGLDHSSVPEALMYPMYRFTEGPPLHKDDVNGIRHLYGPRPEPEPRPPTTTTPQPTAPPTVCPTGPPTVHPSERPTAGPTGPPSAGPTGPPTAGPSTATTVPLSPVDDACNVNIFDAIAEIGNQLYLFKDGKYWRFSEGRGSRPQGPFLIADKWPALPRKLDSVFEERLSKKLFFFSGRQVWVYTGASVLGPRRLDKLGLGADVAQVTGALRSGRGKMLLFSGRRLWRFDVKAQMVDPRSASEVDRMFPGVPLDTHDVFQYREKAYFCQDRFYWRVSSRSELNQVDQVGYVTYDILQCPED
Counter-ions that a name gives are not always drawn.

Cc1c(=O)n(Cc2ccc3cc(F)ccc3n2)c(=O)n2cc(C(=O)NCc3ccc(F)cc3)sc12 = > 30 µM
O=C(OCc1ccncc1)C1Cn2c(cc(=O)n(Cc3ccccc3)c2=O)S1 (stereo not shown) [Example 21, hydrochloride] = > 100 µM
COC(=O)c1ccc(Cn2c(=O)c(C)c3sc(C(=O)NCc4ccc(F)cc4)cn3c2=O)cc1C = > 100 µM
COC(=O)c1ccc(Cn2c(=O)c(C)c3sc(C(=O)NCc4ccc(F)cc4)cn3c2=O)cc1OC.Cl = > 30 µM
Cc1c(=O)n(Cc2ccc(C#N)cc2)c(=O)n2cc(C(=O)NCc3ccncc3)sc12 [Example 85, hydrochloride] = > 30 µM
Cc1c(=O)n(Cc2ccc(C#N)cc2)c(=O)n2cc(C(=O)NCc3ccc(F)cc3)sc12 = > 30 µM

Field: next molecule
Prompt: Suppose we examine the molecule Cc1c(=O)n(Cc2ccc(F)cc2)c(=O)n2cc(C(=O)NCc3ccncc3)sc12 [Example 70, hydrochloride] ; what IC50 value has been reported?
Completion: > 30 µM

###

Each entry below carries its recorded IC50.
target: MMP-9FL (full length Gelatinase B) (Homo sapiens); assay: Thiopeptolide substrate hydrolysis assay, MMP-9FL; assay type: biochemical; conditions: HEPES pH 7.0, 22° C., read-out: IC50 (μM) Versus Certain MMPs: MMP-09 FL
Counter-ions that a name gives are not always drawn.

Prompt: Suppose we examine the molecule O=C(OCc1ccncc1)c1cn2c(=O)n(Cc3ccccc3)c(=O)cc2s1 [Example 3, hydrochloride] ; what IC50 value has been reported?
Completion: > 100 µM

Prompt: Another: COC(=O)c1ccc(Cn2c(=O)c(C)c3sc(C(=O)NCc4cccc(F)c4)cn3c2=O)cc1
Completion: > 30 µM

Prompt: Another: Cc1c(=O)n(Cc2ccccc2)c(=O)n2cc(C(=O)NCc3ccc(C(F)(F)F)cc3)sc12
Completion: > 100 µM

Prompt: Another: COc1cccc(CNC(=O)c2cn3c(=O)n(Cc4ccccc4)c(=O)c(C)c3s2)c1
Completion: > 30 µM

###

Molecular target: MMP-14CD (catalytic domain of MMP-14) (Homo sapiens)
Assay: Thiopeptolide substrate hydrolysis assay, MMP-14CD
Assay type: biochemical
Conditions: HEPES pH 7.0, 22° C., read-out: IC50 (μM) Versus Certain MMPs: MMP-14 CD
Excerpt: The invention compounds of Formula I have been evaluated in standard assays for their ability to inhibit the catalytic activity of various MMP enzymes. Thiopeptolide substrates show virtually no decomposition or hydrolysis at or below neutral pH in the absence of a matrix metalloproteinase enzyme. Several representative compounds have been evaluated for their ability to inhibit various matrix metalloproteinase enzymes.
Each entry below carries its recorded IC50.

Prompt: Form field: IC50 recorded for Cc1c(=O)n(Cc2ccccc2)c(=O)n2cc(C(=O)NCc3cccc(F)c3)sc12 with MMP-14CD (catalytic domain of MMP-14) (Homo sapiens) (enter value)
Completion: > 30 µM

Prompt: Another: COc1cccc(CNC(=O)c2cn3c(=O)n(Cc4ccccc4)c(=O)c(C)c3s2)c1
Completion: > 30 µM

Prompt: Another: O=C(NCc1ccncc1)C1Cn2c(cc(=O)n(Cc3ccccc3)c2=O)S1 (stereo not shown)
Completion: > 100 µM

Prompt: Another: Cc1c(=O)n(Cc2ccccc2)c(=O)n2cc(C(=O)NCc3ccccc3)sc12
Completion: > 30 µM
